target: NOV1401; assay: cell-based or functional assay; note: test concentration or dose not given here
Sequence (VL, as listed by the source): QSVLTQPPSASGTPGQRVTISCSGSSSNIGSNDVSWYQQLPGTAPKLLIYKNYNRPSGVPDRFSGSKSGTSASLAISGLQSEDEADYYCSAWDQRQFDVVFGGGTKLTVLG
Property: TGA percentage reversal, NOV1401/anti NOV1401 ratio 1/10 (n/n); scope: individual binders
// units = %; emit number, no label

See these solved cases before continuing.
>>> meas_value("IDT1 (Fab, V domains shown, Fab (heavy chain is VH-CH1); also called anti-NOV1401 Fab IDT1) VH: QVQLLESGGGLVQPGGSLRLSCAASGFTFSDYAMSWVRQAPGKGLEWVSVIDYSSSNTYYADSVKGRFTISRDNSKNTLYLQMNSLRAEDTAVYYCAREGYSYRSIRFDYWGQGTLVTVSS VL: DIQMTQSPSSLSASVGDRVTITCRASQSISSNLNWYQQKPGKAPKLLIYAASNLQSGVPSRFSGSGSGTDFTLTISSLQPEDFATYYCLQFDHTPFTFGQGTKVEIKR")
55
>>> meas_value("IDT2 (Fab, V domains shown, Fab; also called anti-NOV1401 Fab IDT2) VH: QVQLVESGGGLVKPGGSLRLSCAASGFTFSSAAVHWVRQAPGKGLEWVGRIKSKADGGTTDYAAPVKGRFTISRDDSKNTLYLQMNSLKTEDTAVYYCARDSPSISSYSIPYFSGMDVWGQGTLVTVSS VL: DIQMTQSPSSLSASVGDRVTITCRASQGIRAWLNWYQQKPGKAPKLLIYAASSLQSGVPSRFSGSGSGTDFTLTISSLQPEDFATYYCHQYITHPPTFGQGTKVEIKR")
61
>>> meas_value("IDT10 (Fab, V domains shown, Fab; also called anti-NOV1401 Fab IDT10) VH: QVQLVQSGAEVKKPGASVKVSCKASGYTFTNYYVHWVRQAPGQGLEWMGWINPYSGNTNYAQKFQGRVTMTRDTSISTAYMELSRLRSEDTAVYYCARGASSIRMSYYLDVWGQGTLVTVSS VL: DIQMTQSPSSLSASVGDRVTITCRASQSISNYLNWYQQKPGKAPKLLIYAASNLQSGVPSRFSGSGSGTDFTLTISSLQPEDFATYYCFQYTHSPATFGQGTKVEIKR")
57

Query: Reported TGA percentage reversal, NOV1401/anti NOV1401 ratio 1/10 (n/n) for IDT9 (Fab, V domains shown, Fab; also called anti-NOV1401 Fab IDT9) VH: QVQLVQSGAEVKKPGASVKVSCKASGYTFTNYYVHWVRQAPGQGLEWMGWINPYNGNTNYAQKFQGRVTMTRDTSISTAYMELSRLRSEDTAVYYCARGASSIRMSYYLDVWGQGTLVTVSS VL: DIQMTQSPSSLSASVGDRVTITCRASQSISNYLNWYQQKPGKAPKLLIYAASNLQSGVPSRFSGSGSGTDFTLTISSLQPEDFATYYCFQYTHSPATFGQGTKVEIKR : what is it?
Result: 72
